Experiment: in vivo
Settings: rat, iv, 10 mg/kg
Criterion: Vd strictly under 1 L/kg. Met: True. Not met: False.

is_below(Vd, 1 L/kg) for "CCN1[C@@H](C(=O)NC23CCC(C(=O)O)(CC2)CC3)[C@H](c2cccc(Cl)c2F)[C@]2(C(=O)Nc3cc(Cl)ccc32)C12CCCCC2" ?
False

is_below(Vd, 1 L/kg) for "CN1[C@@H](C(=O)NC23CCC(C(=O)O)(CC2)CC3)[C@H](c2cccc(Cl)c2F)[C@]2(C(=O)Nc3cc(Cl)ccc32)C12CCCCC2" ?
False

is_below(Vd, 1 L/kg) for "O=C(NC12CCC(C(=O)O)(CC1)CC2)[C@@H]1NC2(CCCCC2)[C@@]2(C(=O)Nc3cc(Cl)ccc32)[C@H]1c1cccc(Cl)c1F" ?
True

is_below(Vd, 1 L/kg) for "CC1(C)CCC2(CC1)N[C@@H](C(=O)Nc1ccc(C(=O)O)cc1)[C@H](c1cccc(Cl)c1F)[C@]21C(=O)Nc2cc(Cl)ccc21" ?
False

is_below(Vd, 1 L/kg) for "O=C(O)c1ccc(NC(=O)[C@@H]2NC3(CCCCC3)[C@@]3(C(=O)Nc4cc(Cl)ccc43)[C@H]2c2cccc(Cl)c2F)cc1" ?
False

###

Can you tell me pIC50 for the items I'm about to list?
Test system: LNCaP
Test: cells
Details: Homo sapiens
Here pIC50 is given on a logarithmic scale as minus log10 of the concentration in mol/L.

For "O=C(NC12CCC(C(=O)O)(CC1)CC2)[C@@H]1NC2(CCCCC2)[C@@]2(C(=O)Nc3cc(Cl)ccc32)[C@H]1c1cccc(Cl)c1F" the compound record lists pIC50 as 7.44

For "CCN1[C@@H](C(=O)NC23CCC(C(=O)O)(CC2)CC3)[C@H](c2cccc(Cl)c2F)[C@]2(C(=O)Nc3cc(Cl)ccc32)C12CCCCC2" the compound record lists pIC50 as 7.74

###

Assay: in vivo
Details: rat, po, 25 mg/kg
OBSERVED PROPERTY: AUC

For CCN1[C@@H](C(=O)NC23CCC(C(=O)O)(CC2)CC3)[C@H](c2cccc(Cl)c2F)[C@]2(C(=O)Nc3cc(Cl)ccc32)C12CCCCC2 [ALRIZOMADLIN] the compound record lists AUC as 39100 ng·h/mL

For "CC1(C)CCC2(CC1)N[C@@H](C(=O)Nc1ccc(C(=O)O)cc1)[C@H](c1cccc(Cl)c1F)[C@]21C(=O)Nc2cc(Cl)ccc21" the compound record lists AUC as 10200 ng·h/mL

For "CN1[C@@H](C(=O)NC23CCC(C(=O)O)(CC2)CC3)[C@H](c2cccc(Cl)c2F)[C@]2(C(=O)Nc3cc(Cl)ccc32)C12CCCCC2" the compound record lists AUC as 35200 ng·h/mL

For "O=C(O)c1ccc(NC(=O)[C@@H]2NC3(CCCCC3)[C@@]3(C(=O)Nc4cc(Cl)ccc43)[C@H]2c2cccc(Cl)c2F)cc1" the compound record lists AUC as 6800 ng·h/mL

###

Assay: physchem
Details: 1:1 CH3CN/H2O solution
OBSERVED PROPERTY: remaining at 168 h

For "CC(C)(C)C[C@@H]1N[C@@H](C(=O)N[C@H]2CC[C@H](O)CC2)[C@H](c2cccc(Cl)c2F)[C@]12C(=O)Nc1cc(Cl)ccc12" the molecule record lists remaining at 168 h as 93 to 96%
